target: PDGF-Ra (Homo sapiens); construct: host or cells: G-292 human osteosarcoma cells; assay: Inhibitory activity against PDGF-Ra phosphorylation by PDGF-AA stimulation using G292; type: cell-based; conditions: Pharmacological Test Example 1; > means inhibition at indicated concentration not more than 50%, < and << not less than 50%; read-out: PDGF (E) IC50
Reported endpoint: IC50 (nM)

Solved cases below.
[[record]]
compound = "COc1cc2nccc(Oc3ccc(NC(=O)OCc4ccc(C(C)(C)C)cc4)cc3)c2cc1OC"
value_observed = 11

[[record]]
compound = "COc1cc2nccc(Oc3cc(C)c(NC(=O)OC(C)c4ccccc4Br)cc3C)c2cc1OC (stereo not drawn)"
value_observed = 65

[[record]]
compound = "COc1cc2nccc(Oc3ccc(NC(=O)Oc4c(OC)cccc4OC)c(C)c3C)c2cc1OC"
value_observed = 34

[[record]]
compound = "C=CCOC(=O)Nc1cc(C)c(Oc2ccnc3cc(OC)c(OC)cc23)cc1C"
value_observed = 43

[[record]]
compound = "COc1cc2nccc(Oc3ccc(NC(=O)OC(C)c4cc(F)c(F)cc4F)c(C)c3C)c2cc1OC (stereo not drawn)"
value_observed = 17

[[record]]
compound = "COc1cc2nccc(Oc3ccc(NC(=O)OC(C)c4ccccc4Br)cc3)c2cc1OC (stereo not drawn)"
value_observed = 16


[A] COc1cc2nccc(Oc3cc(C)c(NC(=O)OC4CCCC4)cc3C)c2cc1OC
[B] COc1cc2nccc(Oc3ccc(NC(=O)OCc4ccc(C)cc4)cc3)c2cc1OC
Task item: Which has the smaller recorded IC50, A or B ? Give the label under which the chosen entry appears.
Reply: B

* * *

target: c-kit (Homo sapiens, UniProt P10721); construct: MO7e (human megakaryocytic leukemia cell line) which had been arrested for 20 hr; endogenous in cells; host or cells: MO7e human megakaryocytic leukemia cell line; assay: Inhibitory activity against c-kit autophosphorylation (MO7e cells, h-SCF); assay type: cell-based; settings: MO7e cells, 50 ng/ml h-SCF; read-out: c-kit IC50
Sequence (P10721 26-976): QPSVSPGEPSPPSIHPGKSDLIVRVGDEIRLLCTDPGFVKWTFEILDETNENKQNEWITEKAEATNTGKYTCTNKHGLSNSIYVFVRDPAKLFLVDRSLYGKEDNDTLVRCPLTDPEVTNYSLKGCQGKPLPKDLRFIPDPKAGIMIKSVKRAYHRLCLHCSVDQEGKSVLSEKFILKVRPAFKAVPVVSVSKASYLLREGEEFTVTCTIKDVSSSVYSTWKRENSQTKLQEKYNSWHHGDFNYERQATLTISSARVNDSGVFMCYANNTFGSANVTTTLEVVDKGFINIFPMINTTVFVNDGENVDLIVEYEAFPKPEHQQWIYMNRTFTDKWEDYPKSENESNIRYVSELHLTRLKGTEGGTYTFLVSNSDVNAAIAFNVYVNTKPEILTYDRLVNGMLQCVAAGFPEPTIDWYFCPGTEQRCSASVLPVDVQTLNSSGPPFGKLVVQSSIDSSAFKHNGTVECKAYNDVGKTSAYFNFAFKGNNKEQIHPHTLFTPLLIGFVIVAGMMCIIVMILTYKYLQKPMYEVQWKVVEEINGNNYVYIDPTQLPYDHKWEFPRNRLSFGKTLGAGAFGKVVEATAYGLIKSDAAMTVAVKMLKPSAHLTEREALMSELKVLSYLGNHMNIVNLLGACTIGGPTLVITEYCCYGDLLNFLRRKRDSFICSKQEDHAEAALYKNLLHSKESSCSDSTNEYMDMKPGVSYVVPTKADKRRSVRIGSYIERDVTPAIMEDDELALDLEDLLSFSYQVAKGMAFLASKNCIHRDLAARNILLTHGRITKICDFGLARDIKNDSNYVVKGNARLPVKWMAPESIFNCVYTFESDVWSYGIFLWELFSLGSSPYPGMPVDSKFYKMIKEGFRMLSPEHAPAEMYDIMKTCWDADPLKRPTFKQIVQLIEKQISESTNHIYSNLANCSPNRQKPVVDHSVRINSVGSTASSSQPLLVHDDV
Reported endpoint: IC50 (nM)

[[record]]
compound = "COc1cc2ncnc(Oc3ccc(NC(=O)NC4CCN(Cc5ccccc5)CC4)c([N+](=O)[O-])c3)c2cc1OC [Example 640]"
value_observed = 254

[[record]]
compound = "COc1cc2nccc(Oc3ccc(NC(=S)NC(=O)Cc4cccs4)cc3Cl)c2cc1OC"
value_observed = 459

[[record]]
compound = "COc1cc2ncnc(Oc3ccc(NC(=O)NCCN4CCCCC4)c([N+](=O)[O-])c3)c2cc1OC"
value_observed = 337

[[record]]
compound = "COc1cc2nccc(Oc3ccc(OCCCOc4cccc(F)c4)cc3)c2cc1OC"
value_observed = 403

[[record]]
compound = "COc1cc2nccc(Oc3ccc(NC(=S)NC(=O)Cc4cccc5ccccc45)cc3Cl)c2cc1OC"
value_observed = 348


[P] COc1cc2nccc(Oc3cc(C)c(NC(=S)NCCCN4CCOCC4)cc3C)c2cc1OC
[Q] C#CCC(CC)OC(=O)Nc1ccc(Oc2ccnc3cc(OC)c(OC)cc23)cc1 (centres unmarked)
[R] COc1cc2ncnc(Oc3ccc(NC(=S)NCCN(C)C)cc3)c2cc1OC
[S] CCCCCC(C)OC(=O)Nc1ccc(Oc2ccnc3cc(OC)c(OC)cc23)c(C)c1C (centres unmarked)
[T] COc1ccc(CCC(=O)NC(=S)Nc2ccc(Oc3ncnc4cc(OC)c(OC)cc34)cc2)cc1OC
Task item: Please list these in order of increasing IC50. Thank you! Rank the items, then write their labels in that order.
Reply: S, T, Q, P, R
(S: 50 nM, T: 89 nM, Q: 192 nM, P: 320 nM, R: 711 nM)

* * *

biological target: c-kit (Homo sapiens, UniProt P10721); construct: MO7e (human megakaryocytic leukemia cell line) which had been arrested for 20 hr; endogenous in cells; host or cells: MO7e human megakaryocytic leukemia cell line; assay: Inhibitory activity against c-kit autophosphorylation (MO7e cells, h-SCF); assay type: cell-based; conditions: Mo7e, figure in parentheses in −( ); at 1000 nM
Reported endpoint: inhibition at 1 µM (%)

[[record]]
compound = "COc1cc2ncnc(Oc3ccc(NC(=O)OC(C)c4cc(F)c(F)cc4F)c(Cl)c3)c2cc1OC (stereo not drawn)"
value_observed = 13

[[record]]
compound = "COc1ccc(C(=O)NC(=S)Nc2ccc(Oc3ccnc4cc(OC)c(OC)cc34)cc2)c(OC)c1"
value_observed = 27

[[record]]
compound = "COc1cc2nccc(Oc3ccc(NCCOc4c(OC)cccc4OC)cc3C)c2cc1OC"
value_observed = 36

[[record]]
compound = "COc1cc2nccc(Oc3ccc(NC(=S)NC(=O)c4c(Cl)cccc4Cl)cc3F)c2cc1OC"
value_observed = 19


[1] COc1cc2ncnc(Oc3ccc(NC(=S)NC(=O)c4ccc(C)nc4)cc3)c2cc1OC
[2] COc1cc2nccc(Oc3ccc(NC(=S)NC(=O)c4cccc(C)c4)c([N+](=O)[O-])c3)c2cc1OC
Task item: Quick check, higher inhibition at 1 µM between 1 and 2 ? API: response body contains the label of the selected item.
Reply: 2

* * *

biological target: PDGF-Ra (Homo sapiens, UniProt P16234); construct: host or cells: G-292 human osteosarcoma cells; assay: Inhibitory activity against PDGF-Ra phosphorylation by PDGF-AA stimulation using G292; assay type: cell-based; details: > means inhibition at indicated concentration not more than 50%, < and << not less than 50%; read-out: PDGF (E) IC50
Sequence (P16234 24-1089): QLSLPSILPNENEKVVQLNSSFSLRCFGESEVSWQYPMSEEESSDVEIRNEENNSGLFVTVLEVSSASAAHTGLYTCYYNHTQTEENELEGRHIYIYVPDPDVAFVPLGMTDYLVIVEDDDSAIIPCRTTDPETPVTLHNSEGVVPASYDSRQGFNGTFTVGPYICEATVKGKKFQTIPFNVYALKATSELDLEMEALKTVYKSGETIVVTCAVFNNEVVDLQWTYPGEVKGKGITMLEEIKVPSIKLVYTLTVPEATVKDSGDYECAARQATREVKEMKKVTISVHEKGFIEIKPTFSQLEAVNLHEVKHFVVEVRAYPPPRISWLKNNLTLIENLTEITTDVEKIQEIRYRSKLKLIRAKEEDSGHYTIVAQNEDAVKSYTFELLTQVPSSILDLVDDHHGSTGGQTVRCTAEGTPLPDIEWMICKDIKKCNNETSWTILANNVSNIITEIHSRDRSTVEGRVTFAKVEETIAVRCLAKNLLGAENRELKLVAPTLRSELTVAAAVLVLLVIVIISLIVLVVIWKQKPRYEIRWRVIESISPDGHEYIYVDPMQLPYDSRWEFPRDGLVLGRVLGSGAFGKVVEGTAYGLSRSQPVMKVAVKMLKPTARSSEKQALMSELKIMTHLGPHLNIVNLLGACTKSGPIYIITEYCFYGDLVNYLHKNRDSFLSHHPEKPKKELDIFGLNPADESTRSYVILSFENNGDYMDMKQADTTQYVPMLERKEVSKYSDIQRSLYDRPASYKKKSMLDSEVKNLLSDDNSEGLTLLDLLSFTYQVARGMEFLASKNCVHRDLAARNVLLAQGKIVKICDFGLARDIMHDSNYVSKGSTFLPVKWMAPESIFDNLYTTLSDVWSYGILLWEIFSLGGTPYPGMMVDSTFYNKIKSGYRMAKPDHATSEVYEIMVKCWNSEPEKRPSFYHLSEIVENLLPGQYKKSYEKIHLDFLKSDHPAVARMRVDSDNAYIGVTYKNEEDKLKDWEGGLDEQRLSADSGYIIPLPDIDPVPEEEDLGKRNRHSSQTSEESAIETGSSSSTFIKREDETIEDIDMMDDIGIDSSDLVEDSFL
pIC50: −log10 of the molar value.
Reported endpoint: pIC50

[[record]]
molecule = "COc1cc2nccc(Oc3ccc(NC(=S)NC(=O)[C@H](C)c4ccccc4)cc3)c2cc1OC"
value_observed = 8.00

[[record]]
molecule = "COc1cc(Oc2ccnc3cc(OC)c(OC)cc23)ccc1NC(=O)NCCN(C(C)C)C(C)C"
value_observed = 7.28

[[record]]
molecule = "CCN(CC)CCNC(=O)Nc1ccc(Oc2ccnc3cc(OC)c(OC)cc23)cc1C"
value_observed = 7.41

[[record]]
molecule = "COc1cc2ncnc(Oc3ccc(NC(=O)N[C@H]4CCN(Cc5ccccc5)C4)c(Cl)c3)c2cc1OC"
value_observed = 7.44

[[record]]
molecule = "COc1ccccc1COC(=O)Nc1ccc(Oc2ncnc3cc(OC)c(OC)cc23)cc1OC"
value_observed = 7.85

[[record]]
molecule = "COc1cc2nccc(Oc3ccc(NC(=O)OCc4cccnc4)c(C)c3C)c2cc1OC"
value_observed = 7.89

[[record]]
molecule = "CCCCC(=O)NC(=S)Nc1ccc(Oc2ncnc3cc(OC)c(OC)cc23)cc1"
value_observed = 7.38

[[record]]
molecule = "COc1cc2ncnc(Oc3ccc(N(C)C(=O)OC4CCCCCC4)c(Cl)c3)c2cc1OC"
value_observed = 7.62

[[record]]
molecule = "COc1cc2ncnc(Oc3ccc(NC(=S)NC(=O)C(C)(C)C)cc3)c2cc1OC"
value_observed = 7.12

[[record]]
molecule = "COc1cc2nccc(Oc3ccc(OCCCOc4ccccc4OC)cc3)c2cc1OC"
value_observed = 8.30


[1] CCCC(CCN(CC)CC)OC(=O)Nc1ccc(Oc2ccnc3cc(OC)c(OC)cc23)cc1 (stereo not drawn)
[2] COc1cc2nccc(Oc3ccc(NC(=S)NC(=O)N4CCOCC4)cc3)c2cc1OC
[3] COc1cc2nccc(Oc3ccc(NCCOc4c(OC)cccc4OC)c(C)c3C)c2cc1OC
Task item: # ascending order, key=pIC50 Please list each label once, in the requested order.
Reply: 1, 3, 2

* * *

molecular target: c-kit (Homo sapiens); construct: MO7e (human megakaryocytic leukemia cell line) which had been arrested for 20 hr; endogenous in cells; host or cells: MO7e human megakaryocytic leukemia cell line; test: Inhibitory activity against c-kit autophosphorylation (MO7e cells, h-SCF); type: cell-based; conditions: Mo7e, figure in parentheses in −( ); at 1000 nM
Reported endpoint: inhibition at 1 µM (%)

Known inhibition at 1 µM results, listed for orientation:
[[record]]
compound = "CCCCCCCCCCCC(=O)NC(=S)Nc1ccc(Oc2ccnc3cc(OC)c(OC)cc23)cc1F [Example 1075]"
system_under_test = "c-kit (Homo sapiens)"
reported_endpoint = "inhibition at 1 µM"
units_label = "%"
value_observed = 31

[[record]]
compound = "CCCCCCCCCCCC(=O)NC(=S)Nc1ccc(Oc2ccnc3cc(OC)c(OC)cc23)cc1 [Example 1072]"
system_under_test = "c-kit (Homo sapiens)"
reported_endpoint = "inhibition at 1 µM"
units_label = "%"
value_observed = 18

[[record]]
compound = "COc1cc2nccc(Oc3ccc(NC(=S)NC(=O)c4ccccc4C)c(Cl)c3)c2cc1OC [Example 1101]"
system_under_test = "c-kit (Homo sapiens)"
reported_endpoint = "inhibition at 1 µM"
units_label = "%"
value_observed = 26

[[record]]
compound = "COc1cc2ncnc(Oc3ccc(OCCCn4ccc5ccccc54)cc3)c2cc1OC [Example 811]"
system_under_test = "c-kit (Homo sapiens)"
reported_endpoint = "inhibition at 1 µM"
units_label = "%"
value_observed = 20

[[record]]
compound = "COc1cc2nccc(Oc3ccc(NC(=S)NC(=O)c4ccccc4)c(Cl)c3)c2cc1OC [Example 1107]"
system_under_test = "c-kit (Homo sapiens)"
reported_endpoint = "inhibition at 1 µM"
units_label = "%"
value_observed = 24

[[record]]
compound = "COc1cc2nccc(Oc3ccc(NC(=S)NC(=O)c4ccc(CCl)cc4)cc3Cl)c2cc1OC [Example 1137]"
system_under_test = "c-kit (Homo sapiens)"
reported_endpoint = "inhibition at 1 µM"
units_label = "%"
value_observed = 38


[A] COc1cc2nccc(Oc3ccc(NC(=S)NC(=O)c4ccc(I)cc4)cc3F)c2cc1OC [Example 974]
[B] COc1cccc(OCCS(=O)(=O)c2ccc(Oc3ccnc4cc(OC)c(OC)cc34)cc2)c1 [Example 830]
Task item: # returns the entry with the larger inhibition at 1 µM; inputs A and B In your reply, give the label of the chosen option.
Reply: A
(A: 34%, B: 10%)
